# systemTested: JUNB;CEBPE (Homo sapiens;Homo sapiens, UniProt P17275;Q15744 259-332;195-267, |)
# Sequence 1: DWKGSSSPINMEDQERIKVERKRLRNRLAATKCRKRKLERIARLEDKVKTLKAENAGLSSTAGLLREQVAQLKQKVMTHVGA
# Sequence 2: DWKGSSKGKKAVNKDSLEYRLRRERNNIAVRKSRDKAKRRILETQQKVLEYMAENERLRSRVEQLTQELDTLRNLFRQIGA
# procedureSummary: SELEX-seq (CSI, HT-SELEX, round 3); SELEX-seq: 1x PBS (10 mM phosphate, 137 mM NaCl, 2.7 mM KCl) pH 7.6, 2.5 mM DTT, 50 ng/ul poly dI-dC, 0.1% BSA, 50 nM biotinylated bZIP (1:3 with partner for heterodimers), 100 nM library, room temperature, 1 h, 3 rounds; high values mean tight binding
# statedConditions: protein: recombinant;recombinant; copies: 1;1; dsDNA, one strand shown
quantity: binding signal

| constructSequence | binding signal |
| --- | --- |
| ATGACGCAAT | 0.333 relative CSI intensity (max = 1) |

## Input Which binding signal is reported for this sequence? "ATGATGCAAT"
## Output 0.314 relative CSI intensity (max = 1)

## Input Follow-up item: "ATGACGTCAT"
## Output 0.104 relative CSI intensity (max = 1)

## Input # repeat for "CCTGACGTCA"
## Output 0.00962 relative CSI intensity (max = 1)

## Input What do you get for "ATGACGTAAT" ?
## Output 0.0862 relative CSI intensity (max = 1)

* * *

# systemTested: FOSL1;ATF3 (Homo sapiens;Homo sapiens, UniProt P15407;P18847 96-169;77-150, |)
# Sequence 1: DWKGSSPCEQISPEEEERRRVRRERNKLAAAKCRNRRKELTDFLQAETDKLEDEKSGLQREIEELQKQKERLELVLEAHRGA
# Sequence 2: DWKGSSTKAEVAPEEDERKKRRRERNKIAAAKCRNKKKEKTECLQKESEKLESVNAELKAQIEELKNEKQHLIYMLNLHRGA
# procedureSummary: SELEX-seq (CSI, HT-SELEX, round 3); SELEX-seq: 1x PBS (10 mM phosphate, 137 mM NaCl, 2.7 mM KCl) pH 7.6, 2.5 mM DTT, 50 ng/ul poly dI-dC, 0.1% BSA, 50 nM biotinylated bZIP (1:3 with partner for heterodimers), 100 nM library, room temperature, 1 h, 3 rounds; high values mean tight binding
# statedConditions: protein: recombinant;recombinant; copies: 1;1; dsDNA, one strand shown
quantity: binding signal

The examples below pair each entry with its known result.
| constructSequence | systemTested | experimentalValue |
| --- | --- | --- |
| ATGACGGAAT | FOSL1;ATF3 (Homo sapiens;Homo sapiens, UniProt P15407;P18847 96-169;77-150, |) | 0.0493 relative CSI intensity (max = 1) |
| ATGACGTAAT | FOSL1;ATF3 (Homo sapiens;Homo sapiens, UniProt P15407;P18847 96-169;77-150, |) | 0.0529 relative CSI intensity (max = 1) |
| ATGACGCAAT | FOSL1;ATF3 (Homo sapiens;Homo sapiens, UniProt P15407;P18847 96-169;77-150, |) | 0.0466 relative CSI intensity (max = 1) |

Turning now to a further sequence:
## Input Field request: binding signal | item: "ATGATGCAAT"
## Output 0.00412 relative CSI intensity (max = 1)
